# System: Pseudomonus aeruginosa NCTC-10490
# Test Summary: In vitro activity, two-fold agar-plate dilution method, minimal inhibitory concentration (MIC)
# Format: cell-based
# Stated Conditions: heart infusion agar (HI-agar); overnight culture in Trypticase-soy broth (10^8 viable cells per ml.); incubation at 37° C. for 20 hours; read-out: MIC (minimal inhibitory concentration)
Measured Endpoint: MIC (µg/mL)
Supply the numeric figure in µg/mL, leaving out any unit text.

For orientation, consider the following solved cases.
Cn1nnnc1SCC1=C(C(=O)O)N2C(=O)C(NC(=O)[C@H](NC(=O)COc3cc(Cl)cc(Cl)c3O)c3ccccc3)C2SC1 (stereo partly drawn) | 6.25
Cn1nnnc1SCC1=C(C(=O)O)N2C(=O)C(NC(=O)[C@H](NC(=O)c3cc(S(N)(=O)=O)ccc3O)c3ccccc3)C2SC1 (stereo partly drawn) | 0.78

Field: next compound
Sample Cc1nnc(SCC2=C(C(=O)O)N3C(=O)C(NC(=O)[C@H](NC(=O)[C@H](O)c4ccccc4)c4ccccc4)C3SC2)s1 (stereo partly drawn) — what was its MIC? 12.5
